read-out: Plasminogen activator inhibitor-1 (PAI1), SERPINE1 (gene 5054); experiment: BSK_hDFCGF_PAI1: BioMAP Diversity Plus: hDFCGF Assay for Plasminogen activator inhibitor-1 (PAI1) Biomarker Activity (AID 2283066); conditions: primary human foreskin fibroblasts; actives raise or lower the signal
Activity calls are given as the source filed them. The calls were made as follows: active = hit-call score of the fitted dose curve at least 0.9, where 1 is the maximum; inactive = score below 0.9.
Write down the outcome that applies. Available outcomes: True (active), False (inactive)

**Query** So what was the verdict on "C=CC(=O)NCNC(=O)C=C" in this test?
**Result** False

**Query** So what was the verdict on "CCC(=O)O[C@H]1CC[C@H]2[C@@H]3CCC4=CC(=O)CC[C@]4(C)[C@H]3CC[C@]12C" in this test?
**Result** True

**Query** So what was the verdict on "O=S(=O)(O)C(F)(F)C(F)(F)C(F)(F)C(F)(F)F" in this test?
**Result** False

**Query** So what was the verdict on "Cc1cccc(C)c1N" in this test?
**Result** False

**Query** So what was the verdict on "c1ccc(-c2ccccc2)cc1" in this test?
**Result** False

**Query** So what was the verdict on "O=NN(c1ccccc1)c1ccccc1" in this test?
**Result** False

**Query** So what was the verdict on "CC(c1ccc(O)cc1)(c1ccc(O)cc1)c1ccc(O)cc1" in this test?
**Result** True

**Query** So what was the verdict on "Nc1ccc(-c2ccc(N)cc2)cc1" in this test?
**Result** False

**Query** So what was the verdict on "C=CC(N)=O" in this test?
**Result** False

**Query** So what was the verdict on "Cc1cccc([N+](=O)[O-])c1" in this test?
**Result** False

**Query** So what was the verdict on "Clc1ccc(Cl)cc1" in this test?
**Result** False

**Query** So what was the verdict on "CCSC(=O)N(CC)C1CCCCC1" in this test?
**Result** False

**Query** So what was the verdict on "Nn1cnnc1" in this test?
**Result** False

**Query** So what was the verdict on "CC1=C2C[C@H]3[C@@H](CC=C4C[C@@H](O)CC[C@@]43C)[C@@H]2CC[C@]12O[C@@H]1C[C@H](C)CN[C@H]1[C@H]2C" in this test?
**Result** False

**Query** So what was the verdict on C1CC2OC2CC1C1CO1 (configuration not stated) in this test?
**Result** False

**Query** So what was the verdict on "CCOCCOC(C)=O" in this test?
**Result** False

**Query** So what was the verdict on "CCC(C)(c1ccc(O)cc1)c1ccc(O)cc1" in this test?
**Result** False

---

Assay: BSK_SAg_PBMCCytotoxicity: PBMC Cytotoxicity Assessment in the BioMAP Diversity Plus: SAg Assay (AID 2283093);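 also: PBMC viability measured as Alamar Blue reduction fluorescence at 546/580 nm; fitted both ways against DMSO so a hit may be loss or gain of signal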
Settings: primary human HUVEC with PBMC
Protocol: BSK_SAg is a cell-based, multiplexed-readout assay that uses umbilical vein endothelium and peripheral blood mononuclear cells, a human vascular primary cell co-culture, with measurements taken at 24 hours after chemical dosing in a 96-well plate.BSK_SAg_PBMCCytotoxicity is an assay component measured in the BSK_SAg assay. It measures Alamar blue related to cell death using Alamar Blue Reduction technology.Data from the assay component BSK_SAg_PBMCCytotoxicity was analyzed into 1 assay endpoint. […]
Activity calls are given as the source filed them. How the source made its calls: active means hit-call score of the fitted dose curve at least 0.9, where 1 is the maximum; inactive means score below 0.9.
Write down the outcome that applies. Available outcomes: Y for active, N for inactive

**Query** So what was the verdict on "CCC(C)(c1ccc(O)cc1)c1ccc(O)cc1" in this test?
**Result** Y

**Query** So what was the verdict on "O=S(=O)(O)C(F)(F)C(F)(F)C(F)(F)C(F)(F)C(F)(F)C(F)(F)F" in this test?
**Result** N

**Query** So what was the verdict on "Clc1ccc(C(Cl)(Cl)Cl)cc1" in this test?
**Result** N

**Query** So what was the verdict on "O=C(N[C@H]1CN2CCC1CC2)c1cc2ccoc2cn1" in this test?
**Result** N

**Query** So what was the verdict on "ClC1=C(Cl)[C@]2(Cl)[C@@H]3[C@@H](Cl)[C@H]4O[C@H]4[C@@H]3C1(Cl)C2(Cl)Cl" in this test?
**Result** N

**Query** So what was the verdict on "Cc1cc2c3c(c1)C(c1ccccc1)=N[C@@H](NC(=O)c1ccncc1)C(=O)N3CC2" in this test?
**Result** N

**Query** So what was the verdict on "O=C(NC(=O)c1cc(F)c(F)cc1Cl)Nc1cc(F)ccc1N1CCC(C(=O)O)CC1" in this test?
**Result** N

**Query** So what was the verdict on "C=CC(=O)NCNC(=O)C=C" in this test?
**Result** N

**Query** So what was the verdict on "C[C@]12CCC(=O)C=C1CC[C@@H]1[C@@H]2CC[C@@]2(C)[C@H]1CC[C@]2(C)O" in this test?
**Result** N

**Query** So what was the verdict on "Oc1ccc(C(c2ccc(O)cc2)(C(F)(F)F)C(F)(F)F)cc1" in this test?
**Result** Y

**Query** So what was the verdict on "ClC(Cl)=C(c1ccc(Cl)cc1)c1ccc(Cl)cc1" in this test?
**Result** Y

**Query** So what was the verdict on "Cc1ccccc1O" in this test?
**Result** N
